EC50 for assorted compounds
# subject.of.test: hDRD2 (Homo sapiens)
# experiment.description: cell-based
parameter.measured: EC50 (nM)

- C[C@@H](O)[C@@H]1NC(=O)[C@H](CCCCN)NC(=O)[C@@H](Cc2c[nH]c3ccccc23)NC(=O)[C@H](Cc2ccncc2)NC(=O)[C@H](Cc2ccccc2)NC(=O)[C@H](CCCNC(=N)N)NC(=O)[C@H](NC[C@H](CCCCNC(=O)C[S+]([O-])C[C@@H]2C[C@@H]3c4cccc5[nH]cc(c45)C[C@H]3N(C)C2)NC(=O)C[S+]([O-])C[C@@H]2C[C@@H]3c4cccc5[nH]cc(c45)C[C@H]3N(C)C2)CCCCNC(=O)[C@H](Cc2ccccc2)NC1=O (stereo partly drawn): 10.2
- C[C@@H](O)[C@@H]1NC(=O)[C@H](CCCCN)NC(=O)[C@@H](Cc2c[nH]c3ccccc23)NC(=O)[C@H](Cc2ccccc2)NC(=O)[C@H](Cc2ccccc2)NC(=O)[C@H](CCCNC(=N)N)NC(=O)[C@H](NCCSC[C@@H]2C[C@@H]3c4cccc5[nH]cc(c45)C[C@H]3N(C)C2)CCCCNC(=O)[C@H](Cc2ccccc2F)NC1=O: 64.5
- CC(=O)N(CCCNC[C@@H]1C[C@@H]2c3cccc4[nH]cc(c34)C[C@H]2N(C)C1)[C@@H]1CCCCNC(=O)[C@H](Cc2ccc(F)cc2)NC(=O)[C@H]([C@@H](C)O)NC(=O)[C@H](CCCCN)NC(=O)[C@@H](Cc2c[nH]c3ccccc23)NC(=O)[C@H](Cc2ccccc2)NC(=O)[C@H](Cc2ccccc2)NC(=O)[C@H](CCCNC(=N)N)NC1=O: 513

* * *

# subject.of.test: hSSTR2 (Homo sapiens, UniProt P30874)
# Construct: host or cells: 'Cells expressing hSSTR2'
# Sequence (P30874 whole entry): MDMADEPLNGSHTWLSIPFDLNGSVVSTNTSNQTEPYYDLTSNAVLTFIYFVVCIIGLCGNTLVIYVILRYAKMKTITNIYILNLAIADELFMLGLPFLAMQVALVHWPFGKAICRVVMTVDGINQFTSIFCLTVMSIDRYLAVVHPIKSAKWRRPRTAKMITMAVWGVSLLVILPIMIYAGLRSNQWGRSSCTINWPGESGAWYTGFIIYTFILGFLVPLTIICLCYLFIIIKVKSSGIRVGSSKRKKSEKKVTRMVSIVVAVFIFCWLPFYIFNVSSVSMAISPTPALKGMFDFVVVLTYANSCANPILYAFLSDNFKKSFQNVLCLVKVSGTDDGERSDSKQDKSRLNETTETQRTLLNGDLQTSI
# experiment.description: Somatostatin receptor radioligand binding assay (hSSTR2);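 also: radioligand displacement on membranes of CHO-K1 cells stably transfected with human SSTR2, specific binding taken as total minus binding left with 1000 nM SRIF-14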
Numbered stars: 1 amine (or outer) side, 2 acyl side, 3 side chain; on linkers, the order of the positions; unused ones are H or OH. Bridge positions count the residues as written; N and C are the ends. Square brackets hold non-standard residues; d marks the D form. Peptide text beside a SMILES is read from it. X1 = CN1C[C@H](CSCCN(CCSC[C@@H]2C[C@@H]3c4cccc5[nH]cc(c45)C[C@H]3N(C)C2)[C@H](CCCCN[*:2])C(=O)[*:1])C[C@@H]2c3cccc4[nH]cc(c34)C[C@H]21
parameter.measured: Ki (nM)

- C[C@@H](O)[C@@H]1NC(=O)[C@H](CCCCN)NC(=O)[C@@H](Cc2c[nH]c3ccccc23)NC(=O)[C@H](Cc2ccccc2)NC(=O)[C@H](Cc2ccccc2)NC(=O)[C@H](CCCNC(=N)N)NC(=O)[C@H](N(CCSC[C@@H]2C[C@@H]3c4cccc5[nH]cc(c45)C[C@H]3N(C)C2)CCSC[C@@H]2C[C@@H]3c4cccc5[nH]cc(c45)C[C@H]3N(C)C2)CCCCNC(=O)[C@H](Cc2ccccc2)NC1=O [Compound 40] (RFF[dW]KTF; linker N-C via X1): 3.17

* * *

Ki for assorted compounds
# subject.of.test: hSSTR1 (Homo sapiens)
# Construct: expressed in transfected cells; host or cells: CHO-K1 (ATCC), pcDNA3.1, G418-selected clonal line; membranes
# Sequence (P30872 whole entry): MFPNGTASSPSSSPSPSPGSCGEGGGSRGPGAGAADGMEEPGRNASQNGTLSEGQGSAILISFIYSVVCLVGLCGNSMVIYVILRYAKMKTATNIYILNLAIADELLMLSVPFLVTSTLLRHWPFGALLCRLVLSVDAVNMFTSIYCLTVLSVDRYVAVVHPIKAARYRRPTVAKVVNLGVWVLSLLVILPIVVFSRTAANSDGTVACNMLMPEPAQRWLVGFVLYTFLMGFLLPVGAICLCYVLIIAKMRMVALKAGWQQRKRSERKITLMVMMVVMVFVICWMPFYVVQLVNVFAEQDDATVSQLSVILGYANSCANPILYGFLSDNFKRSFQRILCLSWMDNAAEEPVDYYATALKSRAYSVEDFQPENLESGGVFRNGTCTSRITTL
# experiment.description: Somatostatin receptor radioligand binding assay (hSSTR1)
parameter.measured: Ki (nM)

• C[C@@H](O)[C@@H]1NC(=O)[C@H](CCCCN)NC(=O)[C@@H](Cc2c[nH]c3ccccc23)NC(=O)[C@H](Cc2ccccc2)NC(=O)[C@H](Cc2ccccc2)NC(=O)[C@H](CCCNC(=N)N)NC(=O)[C@H](NCCS(=O)(=O)C[C@@H]2C[C@@H]3c4cccc5[nH]cc(c45)C[C@H]3N(C)C2)CCCCNC(=O)[C@H](Cc2ccc(F)cc2)NC1=O [Compound 10] = 6.6
• C[C@@H](O)[C@@H]1NC(=O)[C@H](CCCCN)NC(=O)[C@@H](Cc2c[nH]c3ccccc23)NC(=O)[C@H](Cc2ccncc2)NC(=O)[C@H](Cc2ccccc2)NC(=O)[C@H](CCCNC(=N)N)NC(=O)[C@H](NCC[S@@+]([O-])C[C@@H]2C[C@@H]3c4cccc5[nH]cc(c45)C[C@H]3N(C)C2)CCCCNC(=O)[C@H](Cc2ccc(O)cc2)NC1=O [Compound 12] = 98.9

* * *

# subject.of.test: hDRD2 (Homo sapiens, UniProt P14416)
# Sequence (P14416 whole entry): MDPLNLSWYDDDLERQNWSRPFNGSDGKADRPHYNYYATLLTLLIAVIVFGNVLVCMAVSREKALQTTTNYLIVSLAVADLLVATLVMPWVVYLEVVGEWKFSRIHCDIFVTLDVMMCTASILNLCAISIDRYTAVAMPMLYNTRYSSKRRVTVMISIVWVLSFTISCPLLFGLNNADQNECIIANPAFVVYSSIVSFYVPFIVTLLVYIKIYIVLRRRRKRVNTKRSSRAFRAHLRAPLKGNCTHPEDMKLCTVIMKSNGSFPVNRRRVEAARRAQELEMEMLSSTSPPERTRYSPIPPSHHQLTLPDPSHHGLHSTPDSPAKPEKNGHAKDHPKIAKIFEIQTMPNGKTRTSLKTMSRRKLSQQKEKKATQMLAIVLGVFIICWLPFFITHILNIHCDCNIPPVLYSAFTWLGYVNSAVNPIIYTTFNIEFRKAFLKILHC
# experiment.description: cell-based
# Design: host or cells: 'Cells expressing hDRD2'
# condition.details: read-out: hDRD2 %Emax ± SEM
Numbered stars: 1 amine (or outer) side, 2 acyl side, 3 side chain; on linkers, the order of the positions; unused ones are H or OH. Bridge positions count the residues as written; N and C are the ends. Square brackets hold non-standard residues; d marks the D form. Peptide text beside a SMILES is read from it. X1 = CN1C[C@H](CSCCN(CCSC[C@@H]2C[C@@H]3c4cccc5[nH]cc(c45)C[C@H]3N(C)C2)[C@H](CCCCN[*:2])C(=O)[*:1])C[C@@H]2c3cccc4[nH]cc(c34)C[C@H]21; Phe(4-F) = N[C@@H](Cc1ccc(F)cc1)C(=O)O
parameter.measured: Emax (%)

* C[C@@H](O)[C@@H]1NC(=O)[C@H](CCCCN)NC(=O)[C@@H](Cc2c[nH]c3ccccc23)NC(=O)[C@H](Cc2ccccc2)NC(=O)[C@H](Cc2ccccc2)NC(=O)[C@H](CCCNC(=N)N)NC(=O)[C@H](N(CCSC[C@@H]2C[C@@H]3c4cccc5[nH]cc(c45)C[C@H]3N(C)C2)CCSC[C@@H]2C[C@@H]3c4cccc5[nH]cc(c45)C[C@H]3N(C)C2)CCCCNC(=O)[C@H](Cc2ccc(F)cc2)NC1=O [Compound 39] (RFF[dW]KT[Phe(4-F)]; linker N-C via X1) | 95.7
* C[C@@H](O)[C@@H]1NC(=O)[C@H](CCCCN)NC(=O)[C@@H](Cc2c[nH]c3ccccc23)NC(=O)[C@H](Cc2ccncc2)NC(=O)[C@H](Cc2ccccc2)NC(=O)[C@H](CCCNC(=N)N)NC(=O)[C@H](NC[C@H](CCCCNC(=O)C[S+]([O-])C[C@@H]2C[C@@H]3c4cccc5[nH]cc(c45)C[C@H]3N(C)C2)NC(=O)C[S+]([O-])C[C@@H]2C[C@@H]3c4cccc5[nH]cc(c45)C[C@H]3N(C)C2)CCCCNC(=O)[C@H](Cc2ccc(O)cc2)NC1=O (some centres unmarked) [Compound 16] | 95.2

* * *

# subject.of.test: hSSTR5 (Homo sapiens)
# Construct: expressed in transfected cells; host or cells: CHO-K1 (ATCC), pcDNA3.1, G418-selected clonal line; membranes
# Sequence (P35346 whole entry): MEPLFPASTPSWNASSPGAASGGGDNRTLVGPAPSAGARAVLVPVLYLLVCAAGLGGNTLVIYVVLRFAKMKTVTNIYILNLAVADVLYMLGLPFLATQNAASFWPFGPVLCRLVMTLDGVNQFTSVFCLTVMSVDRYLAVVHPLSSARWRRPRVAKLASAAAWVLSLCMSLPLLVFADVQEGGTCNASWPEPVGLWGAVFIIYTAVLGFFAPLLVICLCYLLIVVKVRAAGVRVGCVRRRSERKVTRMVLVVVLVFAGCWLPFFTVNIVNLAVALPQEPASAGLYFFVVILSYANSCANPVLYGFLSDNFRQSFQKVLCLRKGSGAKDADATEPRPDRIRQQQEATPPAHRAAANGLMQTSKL
# experiment.description: Somatostatin receptor radioligand binding assay (hSSTR5)
# condition.details: CHO-K1 cell membranes; 0.05 nM [125I-Tyr]-[DPhe-cyclo(Cys-Tyr-DTrp-Lys-Val-Cys)-Thr-NH2]; 60 minutes at 25°C; read-out: hSSTR5 Ki (nM) ± SEM
parameter.measured: Ki

- C[C@@H](O)[C@@H]1NC(=O)[C@H](CCCCN)NC(=O)[C@@H](Cc2c[nH]c3ccccc23)NC(=O)[C@H](Cc2ccccc2)NC(=O)[C@H](Cc2ccccc2)NC(=O)[C@H](CCCNC(=N)N)NC(=O)[C@H](NC[C@H](Cc2ccc(O)cc2)NC(=O)CSC[C@@H]2C[C@@H]3c4cccc5[nH]cc(c45)C[C@H]3N(C)C2)CCCCNC(=O)[C@H](Cc2ccc(O)cc2)NC1=O [Compound 33]: 0.82 nM
- C[C@@H](O)[C@@H]1NC(=O)[C@H](CCCCN)NC(=O)[C@@H](Cc2c[nH]c3ccccc23)NC(=O)[C@H](Cc2ccncc2)NC(=O)[C@H](Cc2ccccc2)NC(=O)[C@H](CCCNC(=N)N)NC(=O)[C@H](NC[C@H](Cc2ccc(O)cc2)NC(=O)C[S+]([O-])C[C@@H]2C[C@@H]3c4cccc5[nH]cc(c45)C[C@H]3N(C)C2)CCCCNC(=O)[C@H](Cc2ccccc2)NC1=O (some centres unmarked) [Compound 15]: 0.08 nM

* * *

# subject.of.test: hSSTR2 (Homo sapiens, UniProt P30874)
# Construct: host or cells: 'Cells expressing hSSTR2'
# experiment.description: Intracellular calcium mobilization assay (FLIPR Calcium 4), hSSTR2;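 also: agonist activity measured in cells expressing hSSTR2, seeded in 384-well plates, loaded with Calcium 4 dye, read-out as rise in intracellular calcium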
# Format: cell-based
parameter.measured: EC50 (nM)

- C[C@@H](O)[C@@H]1NC(=O)[C@H](CCCCN)NC(=O)[C@@H](Cc2c[nH]c3ccccc23)NC(=O)[C@H](Cc2ccccc2)NC(=O)[C@H](Cc2ccccc2)NC(=O)[C@H](CCCNC(=N)N)NC(=O)[C@@H](NC[C@H](Cc2ccc(O)cc2)NC(=O)CSC[C@@H]2C[C@@H]3c4cccc5[nH]cc(c45)C[C@H]3N(C)C2)CCCCNC(=O)[C@H](Cc2ccccc2)NC1=O: 13.3
- C[C@@H](O)[C@@H]1NC(=O)[C@H](CCCCN)NC(=O)[C@@H](Cc2c[nH]c3ccccc23)NC(=O)[C@H](Cc2ccccc2)NC(=O)[C@H](Cc2ccccc2)NC(=O)[C@H](CCCNC(=N)N)NC(=O)[C@H](NCCSC[C@@H]2C[C@@H]3c4cccc5[nH]cc(c45)C[C@H]3N(C)C2)CCCCNC(=O)[C@H](Cc2cc(F)cc(F)c2)NC1=O: 17
- C[C@@H](O)[C@@H]1NC(=O)[C@H](CCCCN)NC(=O)[C@@H](Cc2c[nH]c3ccccc23)NC(=O)[C@H](Cc2ccncc2)NC(=O)[C@H](Cc2ccccc2)NC(=O)[C@H](CCCNC(=N)N)NC(=O)[C@H](NC[C@H](CCCCNC(=O)C[S+]([O-])C[C@@H]2C[C@@H]3c4cccc5[nH]cc(c45)C[C@H]3N(C)C2)NC(=O)C[S+]([O-])C[C@@H]2C[C@@H]3c4cccc5[nH]cc(c45)C[C@H]3N(C)C2)CCCCNC(=O)[C@H](Cc2ccc(O)cc2)NC1=O (stereo partly shown): 6
- C[C@@H](O)[C@@H]1NC(=O)[C@H](CCCCN)NC(=O)[C@@H](Cc2c[nH]c3ccccc23)NC(=O)[C@H](Cc2ccncc2)NC(=O)[C@H](Cc2ccccc2)NC(=O)[C@H](CCCNC(=N)N)NC(=O)[C@H](NC[C@H](CCCCNC(=O)C[S+]([O-])C[C@@H]2C[C@@H]3c4cccc5[nH]cc(c45)C[C@H]3N(C)C2)NC(=O)C[S+]([O-])C[C@@H]2C[C@@H]3c4cccc5[nH]cc(c45)C[C@H]3N(C)C2)CCCCNC(=O)[C@H](Cc2ccccc2)NC1=O (stereo partly shown): 10.3
